System: OVCAR-5 ovarian
Assay: NCI tumour cell line growth inhibition, 48 h
observationType: TGI

- COc1cc(/C=C2\C(=O)N(c3ccccc3)c3ccccc32)cc(OC)c1OC: 29 µM
- COc1c(O)c(O)c2c(c1O)C(=O)c1cc(C)cc(O)c1C2=O: > 100 µM
- CC(CO)(CBr)COC(=O)c1cc(Br)c(N)c(Br)c1 (stereo not drawn): > 100 µM
- OCCCc1cc(O)c2c(c1)C(CO)C(c1ccc(O)c(O)c1)O2 (stereo not drawn): > 100 µM
- CCOC1(OCC)N=C(N)C2(C#N)C3(C(=O)N(C(C)C)N=C3C)C12C#N (stereo not drawn): > 100 µM
- COc1ccc(CCN2CCC(Nc3nc4ccccc4n3Cc3ccc(F)cc3)CC2)cc1: 3.7 µM
- CC(=O)OC[C@@]1(C)[C@@H]2[C@@H]3[C@@]4(CO[C@]3(C)C(=O)[C@@]3(O)C[C@H](C)[C@H](OC(C)=O)[C@@H]3[C@H]4OC(C)=O)[C@H](OC(=O)c3ccccc3)C[C@@H]21: > 100 µM
- C=CC[C@@H]1/C=C(\C)C[C@H](C)C[C@H](OC)[C@H]2O[C@@](O)(C(=O)C(=O)N3CCCC[C@H]3C(=O)O[C@H](/C(C)=C/C3CC[C@@H](O)[C@H](OC)C3)[C@H](C)[C@@H](O)CC1=O)[C@H](C)C[C@@H]2OC (stereo partly drawn): 37.2 µM

====

Test system: SK-MEL-2 melanoma
Test: NCI tumour cell line growth inhibition, 48 h
observationType: TGI

• CC(=O)N1CC(=O)NC1=S = > 100 µM
• COc1cc(C2S/C(=C/c3ccccc3)C(=O)N2c2cc(Cl)c(Cl)cc2Cl)cc(OC)c1OC (configuration not stated) = > 100 µM
• NC(=O)Nc1c([N+](=O)[O-])cc(C(F)(F)F)cc1[N+](=O)[O-] = > 100 µM
• CCOC(=O)N1CCN(c2nc(C)n(-c3ccccc3)c(=S)c2C#N)CC1 = > 100 µM
• Cc1c(-c2nnc(-c3ccc(F)cc3)o2)nnn1-c1ccnc2c(C(F)(F)F)cccc12 = > 100 µM
• O=C1/C(=C/c2ccccc2F)CN(C(=O)C(Cl)Cl)C/C1=C\c1ccccc1F = 3.62 µM
• COc1ccc2c(c1)CCN1CCCc3ccc(OC)cc3C21 (configuration not stated) = > 100 µM
• COc1ccc2c(c1)/C(=C\c1c(Cl)n(C)c3ccccc13)C(=O)N2 = 31.4 µM
• CN(C)[C@H]1CC[C@H]2[C@@H]3CCC4C[C@@H](NC(=O)NC(Cc5ccccc5)c5nccs5)CC[C@]4(C)[C@H]3CC[C@]12C (some centres not stated) = 3.41 µM
• CCC(CCN)(CCN)[N+](=O)[O-] = > 100 µM
• Cc1c2cc[n+](C)cc2c(C)c2c1[nH]c1ccc(Cl)cc12 = 9.6 µM
• CCOC(=O)N/N=C(\Cc1ccc([N+](=O)[O-])cc1)OCC = > 100 µM
• CC(C)n1c(=O)n(C)c2cnc3cc(F)c(-c4ccc(OCCCN5CCCCC5)nc4)cc3c21 = 30.2 µM
• Cc1cc(=O)oc2c(OS(C)(=O)=O)c(OS(C)(=O)=O)ccc12 = > 100 µM
• C/C=C1\CNC1C(=O)O (configuration not stated) = > 100 µM
• COc1ccc(-c2nn(-c3cccc(NC(=O)c4cccc(C(F)(F)F)c4)c3)cc2-c2ccncc2)cc1Cl = 13.2 µM
• O=C1C(c2c(O)[nH]c3ccccc23)=Nc2ccc(Br)cc21 = 93.9 µM
• COc1c(O)c(O)c2c(c1O)C(=O)c1cc(C)cc(O)c1C2=O = > 100 µM
• CCC1c2[nH]c3ccccc3c2C[C@H]2C(=O)N3CCC[C@H]3C(=O)N12 (some centres not stated) = > 100 µM
• COC(=O)Cc1c(/C=C/C(C)(C)n2cnc(CCN3C(=O)CCC3=O)c2)[nH]c2ccccc12 = > 100 µM
• COC(=O)C(Cc1ccccc1)NC(=O)Cn1ccnc1[N+](=O)[O-] (configuration not stated) = > 100 µM
• CC1=NN(C(=O)CC(=O)Nc2cccc(C)c2)C(=O)C1N=Nc1ccc(S(=O)(=O)c2ccc(N=NC3C(=O)N(C(=O)CC(=O)Nc4cccc(C)c4)N=C3C)cc2)cc1 (configuration not stated) = > 100 µM
• CCN(CC)CCCCNc1ncc2cc(-c3cc(OC)cc(OC)c3)c(NC(=O)NC(C)(C)C)nc2n1 = 13 µM
• CSC1=Nc2c(c(C)c(C)n2COC(CO)CO)C2=NC(=O)CC(C)N12 (configuration not stated) = > 100 µM
• CC(CO)(CBr)COC(=O)c1cc(Br)c(N)c(Br)c1 (configuration not stated) = > 100 µM
• Cc1c(NC(=O)c2cc([N+](=O)[O-])cc([N+](=O)[O-])c2)c(=O)n(-c2ccccc2)n1C = > 100 µM
• CCC1CC(C)=CCN1S(=O)(=O)c1ccc(C)cc1 (configuration not stated) = 27.2 µM
• S=C(c1ccc2c(c1)OCO2)N1CCN(c2cccc(Cl)c2)CC1 = > 100 µM
• O=C1OC(c2ccccc2)=N/C1=C\c1cc(Cl)ccc1Cl = > 100 µM
• COc1cc(-n2cnc(-c3ccc(Cl)cc3)c2)cc(OC)c1OC = 40.1 µM
• CC(=O)C1=C(C)N2C(=NC3=C(CCc4ccccc43)C2c2cccc(Br)c2)S1 (configuration not stated) = > 100 µM
• O=C1/C(=C/c2ccc(Cl)cc2)N=C(c2ccccc2)N1c1nc2c(Cl)cc(Cl)cc2s1 = 55.5 µM
• CCC12CC(c3ccccc3)C(C(=O)N1)C(=O)N2 (configuration not stated) = > 100 µM
• CCCCCCCCCCCCCCCCCC(=O)OCC(C[As](=O)(O)O)OC(=O)CCCCCCCCCCCCCCCCC (configuration not stated) = > 100 µM
• O=C(O)CP(=O)(O)O = > 100 µM
• CCOC(=O)C(=O)Nc1c(CC)cccc1C(C)CC (configuration not stated) = > 100 µM
• O=[N+]([O-])c1cc(-c2nnc(C34CC5CC(CC(C5)C3)C4)o2)cc([N+](=O)[O-])c1 = > 100 µM
• COc1ccc2nc3cc([N+](=O)[O-])ccc3c(Nc3ccc(S(=O)(=O)N=C(N)N)cc3)c2c1 = 44.4 µM
• O=Nc1sc(=N\O)/c(=N/O)sc1NO = > 100 µM
• N#C/C(C(=S)Nc1ccccc1)=C(/N)N1CCCC1 = > 100 µM
• Cc1ccc2c(c1)C(C1Cc3cccc(C)c3C1=O)OC2=O (configuration not stated) = > 100 µM
• CCCCCNC(=O)c1c(O)[nH]c(=S)[nH]c1=O = > 100 µM

Source listed as PubChem BioAssay (NCI).
